Origin of values: patent US7205417B2

Target: human NPY Y5 receptor (Homo sapiens)
Sequence (Q15761 1-445): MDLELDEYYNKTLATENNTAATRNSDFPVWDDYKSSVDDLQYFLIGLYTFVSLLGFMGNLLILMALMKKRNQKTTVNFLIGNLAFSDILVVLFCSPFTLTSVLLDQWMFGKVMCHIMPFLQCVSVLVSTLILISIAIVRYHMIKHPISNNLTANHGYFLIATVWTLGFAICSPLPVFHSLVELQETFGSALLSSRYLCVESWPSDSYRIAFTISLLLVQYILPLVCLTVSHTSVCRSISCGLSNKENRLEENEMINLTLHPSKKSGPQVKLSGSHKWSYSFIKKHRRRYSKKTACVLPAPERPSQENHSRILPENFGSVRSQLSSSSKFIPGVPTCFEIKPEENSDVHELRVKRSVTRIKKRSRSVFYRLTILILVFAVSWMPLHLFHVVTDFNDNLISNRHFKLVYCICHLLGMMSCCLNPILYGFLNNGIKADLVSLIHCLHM
property: IC50 (nM)
One number for each entry, in nM.

Study these solved cases before continuing.
CS(=O)(=O)N1CC2(CCC(C(=O)NC3CCN(c4cccc(F)c4)CC3)CC2)c2ccccc21 (stereo not drawn) | 0.8
O=C1OC2(CCC(C(=O)NC3CCN(c4ccccc4F)CC3)CC2)c2ccccc21 (stereo not drawn) | 1.7
O=C1OC2(CCC(C(=O)NC3CCC(c4ccccc4)CC3)CC2)c2ccccc21 (stereo not drawn) | 2.5
CS(=O)(=O)N1CC2(CCC(C(=O)NC3CCN(c4ccccc4)C3)CC2)c2ccccc21 (stereo not drawn) | 1.2
CS(=O)(=O)N1CC2(CCC(C(=O)NC(CNCc3ccccc3)Cc3ccccc3)CC2)c2ccccc21 (stereo not drawn) | 0.69

The record that follows has no IC50 shown yet.
Task: // returns reported IC50 for input CS(=O)(=O)N1CC2(CCC(C(=O)NC(Cc3ccncc3)C(=O)NCc3ccccc3)CC2)c2ccccc21 (stereo not drawn)
Output: 2
